Please note: true (1) applies when logP is 1 or greater, and false (0) applies otherwise.

Record excerpt, results attached:
• O=C(c1ccccc1)c1ccc(O)cc1 = true (1)
• CCCCN(CCCC)N=O = true (1)
• Cc1ccc(C)c(C)c1 = true (1)
• CC(=O)C(C#N)=NNc1ccc(Cl)c(Cl)c1 = true (1)
• Cc1ccc(C)cc1 = true (1)

Record C=CCOc1cc(C(=O)O)ccc1N ; criterion: logP no lower than 1. Met? true (1)

Confirm if logP reported for the molecule Cc1ccc(C)c2c(C)cccc12 is 1 or above. true (1)

Could you verify whether the entry CC(=O)OC1C(Cl)C(Cl)C(Cl)C(Cl)C1Cl (configuration not stated) shows logP of no less than 1? true (1)

Confirm if logP reported for the molecule ClC=C(Cl)Cl is 1 or above. true (1)

Determine whether this molecule has logP no lower than 1: NC(=O)CCCc1cccnc1 false (0)
